Just for reference, PubChem BioAssay is where these values come from.

Below is a list of entries, each paired with its recorded z-score value.
# RUN DESCRIPTION: PSAC antagonists in infected red cells, primary screen, cell-based, P. falciparum Indochina, OD700, 1 h (AID 1154)
# CONDITION LABEL: P. falciparum Indochina infected RBC osmotic lysis, higher = more signal, called active from +8 up or from −8 down
Note: the reply should be a number with no unit written.

Before answering, review these 10 worked examples.
1) COc1cccc([C@@H]2Oc3ccc(OC)cc3C(=O)[C@H]2O)c1 = 4.92
2) Cc1ccc(S(=O)(=O)N[C@H]2COC(=O)CC=C[C@@H](C)COC(=O)CC=C[C@@H]2C)cc1 = 0.866
3) CO[C@H]1COC(=O)CC=C[C@@H](C)[C@H](NS(=O)(=O)c2ccc(C)cc2)COC(=O)CCC[C@@H]1C = -0.669
4) C=CC[C@@H]1C=C[C@H](ON=C(C)CCN2CCc3nc(-c4ccccc4)c(-c4ccccc4)cc3C2)[C@@H](CO)O1 = 4.53
5) CCOC(=O)[C@H](Cc1ccccc1)NC(=O)CCC1CC(OC(=O)NCCc2ccc(F)cc2)CC2(CCCC(COC(=O)NCCc3ccccc3OC)O2)O1 (some centres undefined) = 0.425
6) O=C1C[C@@H](O)[C@@H](O)[C@@H]2[C@@H]3C(=O)N(Cc4ccc5c(c4)OCO5)C(=O)[C@@H]3CC[C@H]12 = 1.52
7) COC(=O)CC=C[C@@H](C)[C@@H](C=NO[C@H](C)c1cn([C@H](CO)Cc2ccccc2)nn1)NS(=O)(=O)c1ccc(C)cc1 = 2.17
8) O=C1[C@H]2[C@H]3[C@H](O)[C@H](O)CC(=NOC[C@@H](O)COCc4ccco4)[C@H]3CC[C@H]2C(=O)N1c1ccc(F)cc1F = 1.12
9) COC(=O)CC=C[C@@H](C)[C@@H](C=NO[C@@H](C)c1cc(-c2c(C)cc(C)cc2C)no1)NS(=O)(=O)c1ccc(C)cc1 = 1.34
10) CO[C@@H]1COC(=O)CC=C[C@@H](C)[C@H](OC)COC(=O)[C@@H](C)COC(=O)CC=C[C@H]1C = -0.52

Could you share which z-score value was measured for CCCNC(=O)OC[C@H]1O[C@H](CCON=C(C)CCC(=O)OC[C@H]2O[C@H](c3ccccc3)C=C[C@@H]2Oc2ccc(OC)cc2)C=C[C@@H]1Oc1ccc(OC)cc1 ?
2.17

Could you share which z-score value was measured for CC(C)=CCCC(C)=CCON=C1C[C@@H](O)[C@@H](O)[C@@H]2[C@@H]3C(=O)N(c4cccc(Oc5ccccc5)c4)C(=O)[C@@H]3CC[C@@H]12 ?
3.39

Could you share which z-score value was measured for CCC(=O)[C@@]1(O)C(=O)N2C(=C3C(=O)OCC[C@@H]31)N(Cc1ccccc1)C(C)=C(C(=O)OC)[C@H]2c1ccccc1 ?
0.246

Could you share which z-score value was measured for O=C1C[C@@H](O)[C@@H](O)[C@@H]2[C@@H]3C(=O)N(c4cccc(Oc5ccccc5)c4)C(=O)[C@@H]3CC[C@H]12 ?
0.429
